Test system: von Hippel-Lindau disease tumor suppressor/Epidermal growth factor receptor (Homo sapiens), P00533+P40337 [UNDEFINED MUTATION]
assay-summary: Protac activity at VHL/EGFR/deletion19 in human HCC827 cells assessed as induction of EGFR degradation at 30 nM incubated for 24 hrs by Western blot analysis relative to control
Assay type: cell-based
observation-type: Activity (%)
Express your answer in %, writing the number without its unit.

Query :: Look up Activity: "C=CC(=O)N1CCC[C@H](n2c(Nc3ccccc3)nc3cnc(Nc4ccc(N5CCN(CCCCCCC(=O)N[C@H](C(=O)N6C[C@H](O)C[C@H]6C(=O)NCc6ccc(-c7scnc7C)cc6)C(C)(C)C)CC5)cc4)nc32)C1"
Result :: 70

Query :: Look up Activity: "C=CC(=O)N1CC[C@H](n2c(Nc3ccccc3)nc3cnc(Nc4ccc(N5CCN(CCCCCCC(=O)N[C@H](C(=O)N6C[C@H](O)C[C@H]6C(=O)NCc6ccc(-c7scnc7C)cc6)C(C)(C)C)CC5)cc4)nc32)C1"
Result :: 81

Query :: Look up Activity: "C=CC(=O)N1CCC[C@H](n2c(Nc3ccccc3)nc3cnc(Nc4ccc(N5CCN(CC(=O)NCCCCCC(=O)N[C@H](C(=O)N6C[C@H](O)C[C@H]6C(=O)NCc6ccc(-c7scnc7C)cc6)C(C)(C)C)CC5)cc4)nc32)C1"
Result :: 60

Query :: Look up Activity: "C=CC(=O)N1CCC[C@H](n2c(Nc3ccccc3)nc3cnc(Nc4ccc(N5CCN(CC(=O)NCCCCCCC(=O)N[C@H](C(=O)N6C[C@H](O)C[C@H]6C(=O)NCc6ccc(-c7scnc7C)cc6)C(C)(C)C)CC5)cc4)nc32)C1"
Result :: 77

Query :: Look up Activity: "C=CC(=O)N1CCC[C@H](n2c(Nc3ccccc3)nc3cnc(Nc4ccc(N5CCN(CC(=O)NCCOCCOCC(=O)N[C@H](C(=O)N6C[C@H](O)C[C@H]6C(=O)NCc6ccc(-c7scnc7C)cc6)C(C)(C)C)CC5)cc4)nc32)C1"
Result :: 57

Query :: Look up Activity: "C=CC(=O)N1CCC[C@H](n2c(Nc3ccccc3)nc3cnc(Nc4ccc(N5CCN(CCCCCCCC(=O)N[C@H](C(=O)N6C[C@H](O)C[C@H]6C(=O)N[C@@H](C)c6ccc(-c7scnc7C)cc6)C(C)(C)C)CC5)cc4)nc32)C1"
Result :: 74

Query :: Look up Activity: "C=CC(=O)N1CCC[C@H](n2c(Nc3ccccc3)nc3cnc(Nc4ccc(N5CCN(CCCCCCCC(=O)N[C@H](C(=O)N6C[C@H](O)C[C@H]6C(=O)NCc6ccc(-c7scnc7C)cc6)C(C)(C)C)CC5)cc4)nc32)C1"
Result :: 78

###

Tested on: von Hippel-Lindau disease tumor suppressor/Epidermal growth factor receptor (Homo sapiens), P00533+P40337 [L858R,T790M]
assay-summary: Protac activity at VHL/EGFR L858R/T790M mutant in human NCI-H1975 cells assessed as induction of EGFR degradation at 100 nM incubated for 24 hrs by Western blot analysis relative to control
Assay type: cell-based
observation-type: Activity

Query :: Look up Activity: "C=CC(=O)N1CCC[C@H](n2c(Nc3ccccc3)nc3cnc(Nc4ccc(N5CCN(CC(=O)NCCOCCOCC(=O)N[C@H](C(=O)N6C[C@H](O)C[C@H]6C(=O)NCc6ccc(-c7scnc7C)cc6)C(C)(C)C)CC5)cc4)nc32)C1"
Result :: < 20%

Query :: Look up Activity: "C=CC(=O)N1CCC[C@H](n2c(Nc3ccccc3)nc3cnc(Nc4ccc(N5CCN(CC(=O)NCCCCCCC(=O)N[C@H](C(=O)N6C[C@H](O)C[C@H]6C(=O)NCc6ccc(-c7scnc7C)cc6)C(C)(C)C)CC5)cc4)nc32)C1"
Result :: < 20%

Query :: Look up Activity: "COc1cc(N(C)CCN(C)C)c(NC(=O)/C(C#N)=C/C(C)(C)NC(=O)CCCCCCC(=O)N[C@H](C(=O)N2C[C@H](O)C[C@H]2C(=O)NCc2ccc(-c3scnc3C)cc2)C(C)(C)C)cc1Nc1nccc(-c2cn(C)c3ccccc23)n1"
Result :: < 20%

Query :: Look up Activity: "C=CC(=O)N1CCC[C@H](n2c(Nc3ccccc3)nc3cnc(Nc4ccc(N5CCN(CCCCCCCC(=O)N[C@H](C(=O)N6C[C@H](O)C[C@H]6C(=O)N[C@@H](C)c6ccc(-c7scnc7C)cc6)C(C)(C)C)CC5)cc4)nc32)C1"
Result :: 77%

###

tested-on: von Hippel-Lindau disease tumor suppressor/Epidermal growth factor receptor (Homo sapiens, UniProt P00533+P40337, L858R/T790M)
assay-summary: Protac activity at VHL/EGFR L858R/T790M mutant (unknown origin) assessed as inhibition of EGFR incubated for 40 mins in presence of ATP by Kinase Glo luminescence assay
Please go through the items and note down their pIC50.
# pIC50 is unitless: minus log10 of the molar concentration; print number only

Query :: Look up pIC50: "C=CC(=O)N1CCC[C@H](n2c(Nc3ccccc3)nc3cnc(Nc4ccc(N5CCN(C)CC5)cc4)nc32)C1"
Result :: 7.42

Query :: Look up pIC50: "C=CC(=O)N1CC[C@H](n2c(Nc3ccccc3)nc3cnc(Nc4ccc(N5CCN(C)CC5)cc4)nc32)C1"
Result :: 7.64

Query :: Look up pIC50: "COc1cc(N(C)CCN(C)C)c(NC(=O)/C(C#N)=C/C(C)(C)NC(=O)CCCCCCC(=O)N[C@H](C(=O)N2C[C@H](O)C[C@H]2C(=O)NCc2ccc(-c3scnc3C)cc2)C(C)(C)C)cc1Nc1nccc(-c2cn(C)c3ccccc23)n1"
Result :: 6.07

###

System: von Hippel-Lindau disease tumor suppressor/Epidermal growth factor receptor (Homo sapiens), P00533+P40337 [L858R,T790M]
assay-summary: Protac activity at VHL/EGFR L858R/T790M mutant in human NCI-H1975 cells assessed as induction of EGFR degradation at 100 nM incubated for 24 hrs by Western blot analysis relative to control
Type: cell-based
observation-type: Activity

Query :: Look up Activity: "C=CC(=O)N1CCC[C@H](n2c(Nc3ccccc3)nc3cnc(Nc4ccc(N5CCN(C)CC5)cc4)nc32)C1"
Result :: < 20%

Query :: Look up Activity: "C=CC(=O)Nc1cc(Nc2nccc(-c3cn(C)c4ccccc34)n2)c(OC)cc1N(CCCCCCC(=O)NCCOCCOCC(=O)N[C@H](C(=O)N1C[C@H](O)C[C@H]1C(=O)NCc1ccc(-c2scnc2C)cc1)C(C)(C)C)CCN(C)C"
Result :: < 20%

Query :: Look up Activity: "C=CC(=O)N1CCC[C@H](n2c(Nc3ccccc3)nc3cnc(Nc4ccc(N5CCN(CC(=O)NCCCCCC(=O)N[C@H](C(=O)N6C[C@H](O)C[C@H]6C(=O)NCc6ccc(-c7scnc7C)cc6)C(C)(C)C)CC5)cc4)nc32)C1"
Result :: 23%

###

System: von Hippel-Lindau disease tumor suppressor/Epidermal growth factor receptor (Homo sapiens), P00533+P40337 [UNDEFINED MUTATION]
assay-summary: Protac activity at VHL/EGFR/deletion19 in human HCC827 cells assessed as induction of EGFR degradation at 3 nM incubated for 24 hrs by Western blot analysis relative to control
Assay type: cell-based
observation-type: Activity (%)
Express your answer in %, writing the number without its unit.

Query :: Look up Activity: "C=CC(=O)N1CCC[C@H](n2c(Nc3ccccc3)nc3cnc(Nc4ccc(N5CCN(CC(=O)NCCOCCOCC(=O)N[C@H](C(=O)N6C[C@H](O)C[C@H]6C(=O)NCc6ccc(-c7scnc7C)cc6)C(C)(C)C)CC5)cc4)nc32)C1"
Result :: 50

Query :: Look up Activity: "C=CC(=O)N1CCC[C@H](n2c(Nc3ccccc3)nc3cnc(Nc4ccc(N5CCN(CCCCCCC(=O)N[C@H](C(=O)N6C[C@H](O)C[C@H]6C(=O)NCc6ccc(-c7scnc7C)cc6)C(C)(C)C)CC5)cc4)nc32)C1"
Result :: 62

Query :: Look up Activity: "C=CC(=O)N1CC[C@H](n2c(Nc3ccccc3)nc3cnc(Nc4ccc(N5CCN(CCCCCCC(=O)N[C@H](C(=O)N6C[C@H](O)C[C@H]6C(=O)NCc6ccc(-c7scnc7C)cc6)C(C)(C)C)CC5)cc4)nc32)C1"
Result :: 65

Query :: Look up Activity: "C=CC(=O)N1CCC[C@H](n2c(Nc3ccccc3)nc3cnc(Nc4ccc(N5CCN(CCCCCCCC(=O)N[C@H](C(=O)N6C[C@H](O)C[C@H]6C(=O)N[C@@H](C)c6ccc(-c7scnc7C)cc6)C(C)(C)C)CC5)cc4)nc32)C1"
Result :: 70

Query :: Look up Activity: "C=CC(=O)N1CCC[C@H](n2c(Nc3ccccc3)nc3cnc(Nc4ccc(N5CCN(CC(=O)NCCCCCC(=O)N[C@H](C(=O)N6C[C@H](O)C[C@H]6C(=O)NCc6ccc(-c7scnc7C)cc6)C(C)(C)C)CC5)cc4)nc32)C1"
Result :: 46

Query :: Look up Activity: "C=CC(=O)N1CCC[C@H](n2c(Nc3ccccc3)nc3cnc(Nc4ccc(N5CCN(CC(=O)NCCCCCCC(=O)N[C@H](C(=O)N6C[C@H](O)C[C@H]6C(=O)NCc6ccc(-c7scnc7C)cc6)C(C)(C)C)CC5)cc4)nc32)C1"
Result :: 63

Query :: Look up Activity: "C=CC(=O)N1CCC[C@H](n2c(Nc3ccccc3)nc3cnc(Nc4ccc(N5CCN(CCCCCCCC(=O)N[C@H](C(=O)N6C[C@H](O)C[C@H]6C(=O)NCc6ccc(-c7scnc7C)cc6)C(C)(C)C)CC5)cc4)nc32)C1"
Result :: 69
